This listing pairs compounds with measured Cmax.
Test Name: Pharmacokinetics of the compounds in SD rats (Example 36)
Assay type: in vivo
Test Parameters: Intravenous injection administration - 1 mg/kg; SD rat plasma
# output: bare number, implied unit ng/mL

Known results for compounds:
Compound: CC(C)OC(=O)c1cnn(-c2ccc3c(c2)c(C#N)nn3C(C)C)c1
Cmax [ng/mL]: 338
//
Compound: CC(C)n1nc(C#N)c2cc(-c3cc(C(=O)Oc4cccc(CO[N+](=O)[O-])c4)ccn3)ccc21
Cmax [ng/mL]: 2.82
//
Compound: CCOC(=O)OC(C)OC(=O)c1ccnc(-c2ccc3c(c2)c(C#N)nn3C(C)C)c1 (centres unmarked)
Cmax [ng/mL]: 1970
//
Compound: COC(=O)c1ccnc(-c2ccc3c(c2)c(C#N)nn3C(C)C)c1
Cmax [ng/mL]: 518

Input line: Find the recorded Cmax belonging to CCOC(=O)c1cnn(-c2ccc3c(c2)c(C#N)nn3C(C)C)c1 and report it.
Output line: 843
